Every entry's value here was drawn from the OligoGym collection.

# SUBJECT OF TEST: UBE2T
# TEST PROTOCOL: reporter assay of Huesken 2005; note: test concentration or dose not given here
# CONDITION DETAILS: siRNA
Oligonucleotides are written 5' to 3', each unit as a sugar letter and its base; * is a phosphorothioate linkage, no mark a phosphodiester; rarer units and linkages stand in square brackets, end groups in braces. Plain capitals give the bases only. d = 2'-deoxy (DNA); r = 2'-OH (RNA)
The reader will find reported normalised inhibition (eCFP-eYFP dual reporter) values listed item by item below.
Reply with just the number (in %).

Take a look at these entries with their results.
Enquiry: Supply reported normalised inhibition (eCFP-eYFP dual reporter) belonging to this substance: sense rUrCrUrGrCrUrGrGrArArGrGrArUrUrUrGrUrCdTdT / antisense rGrArCrArArArUrCrCrUrUrCrCrArGrCrArGrAdAdT
Return: 87.8

Enquiry: Supply reported normalised inhibition (eCFP-eYFP dual reporter) belonging to this substance: sense rUrCrCrGrArUrUrUrCrUrCrArCrUrCrCrArArUdTdT / antisense rArUrUrGrGrArGrUrGrArGrArArArUrCrGrGrAdTdC
Return: 109

Pending substance:
Enquiry: Supply reported normalised inhibition (eCFP-eYFP dual reporter) belonging to this substance: sense rUrGrArGrGrArArGrArGrArUrGrCrUrUrGrArUdTdT / antisense rArUrCrArArGrCrArUrCrUrCrUrUrCrCrUrCrAdTdC
Return: 91.6

###

# SUBJECT OF TEST: UBE2W
# TEST PROTOCOL: reporter assay of Huesken 2005
# CONDITION DETAILS: siRNA
Oligonucleotides are written 5' to 3', each unit as a sugar letter and its base; * is a phosphorothioate linkage, no mark a phosphodiester; rarer units and linkages stand in square brackets, end groups in braces. Plain capitals give the bases only. d = 2'-deoxy (DNA); r = 2'-OH (RNA)
The reader will find reported normalised inhibition (eCFP-eYFP dual reporter) values listed item by item below.

Enquiry: With UBE2W as the test system, provide measured normalised inhibition (eCFP-eYFP dual reporter) for this substance: sense rArUrGrUrGrCrGrArArCrArUrGrUrArArCrArAdTdT / antisense rUrUrGrUrUrArCrArUrGrUrUrCrGrCrArCrArUdAdA
Return: 88.7%

***
Enquiry: With UBE2W as the test system, provide measured normalised inhibition (eCFP-eYFP dual reporter) for this substance: sense rUrUrArArArUrUrUrArGrUrArGrUrCrGrArUrAdTdT / antisense rUrArUrCrGrArCrUrArCrUrArArArUrUrUrArAdAdT
Return: 79.9%

Enquiry: With UBE2W as the test system, provide measured normalised inhibition (eCFP-eYFP dual reporter) for this substance: sense rUrCrCrArArUrCrArGrUrUrUrGrUrCrUrUrArGdTdT / antisense rCrUrArArGrArCrArArArCrUrGrArUrUrGrGrAdCdT
Return: 85%

###

# SUBJECT OF TEST: P2RX3
# TEST PROTOCOL: reporter assay of Huesken 2005
# CONDITION DETAILS: siRNA
Oligonucleotides are written 5' to 3', each unit as a sugar letter and its base; * is a phosphorothioate linkage, no mark a phosphodiester; rarer units and linkages stand in square brackets, end groups in braces. Plain capitals give the bases only. d = 2'-deoxy (DNA); r = 2'-OH (RNA)
The reader will find reported normalised inhibition (eCFP-eYFP dual reporter) values listed item by item below.
Reply with just the number (in %).

Enquiry: Supply reported normalised inhibition (eCFP-eYFP dual reporter) belonging to this substance: sense rArArCrCrGrArGrUrArGrUrUrCrArGrCrUrUrCdTdT / antisense rGrArArGrCrUrGrArArCrUrArCrUrCrGrGrUrUdGdA
Return: 62

Enquiry: Supply reported normalised inhibition (eCFP-eYFP dual reporter) belonging to this substance: sense rCrGrGrCrUrCrGrArCrArGrCrGrUrUrUrCrUrGdTdT / antisense rCrArGrArArArCrGrCrUrGrUrCrGrArGrCrCrGdGdG
Return: 86

Enquiry: Supply reported normalised inhibition (eCFP-eYFP dual reporter) belonging to this substance: sense rUrUrGrCrGrGrGrGrCrArGrGrArUrUrUrUrGrCdTdT / antisense rGrCrArArArArUrCrCrUrGrCrCrCrCrGrCrArAdAdC
Return: 33.4

Enquiry: Supply reported normalised inhibition (eCFP-eYFP dual reporter) belonging to this substance: sense rCrUrCrGrArCrArGrCrGrUrUrUrCrUrGrArGrAdTdT / antisense rUrCrUrCrArGrArArArCrGrCrUrGrUrCrGrArGdCdC
Return: 64.2

Enquiry: Supply reported normalised inhibition (eCFP-eYFP dual reporter) belonging to this substance: sense rGrArGrUrArGrUrUrCrArGrCrUrUrCrUrGrArUdTdT / antisense rArUrCrArGrArArGrCrUrGrArArCrUrArCrUrCdGdG
Return: 91.8

Enquiry: Supply reported normalised inhibition (eCFP-eYFP dual reporter) belonging to this substance: sense rCrGrCrGrGrCrUrUrUrGrArCrCrArArCrCrCrAdTdT / antisense rUrGrGrGrUrUrGrGrUrCrArArArGrCrCrGrCrGdAdT
Return: 84.4

Enquiry: Supply reported normalised inhibition (eCFP-eYFP dual reporter) belonging to this substance: sense rGrGrUrGrArArUrGrArGrArCrUrArCrGrCrUrGdTdT / antisense rCrArGrCrGrUrArGrUrCrUrCrArUrUrCrArCrCdTdC
Return: 87.3

Enquiry: Supply reported normalised inhibition (eCFP-eYFP dual reporter) belonging to this substance: sense rArCrUrUrUrGrUrArGrGrGrUrGrGrGrUrUrUrUdTdT / antisense rArArArArCrCrCrArCrCrCrUrArCrArArArGrUdAdG
Return: 89.4

Enquiry: Supply reported normalised inhibition (eCFP-eYFP dual reporter) belonging to this substance: sense rArGrUrUrCrArGrCrUrUrCrUrGrArUrCrArUrCdTdT / antisense rGrArUrGrArUrCrArGrArArGrCrUrGrArArCrUdAdC
Return: 72.3

Enquiry: Supply reported normalised inhibition (eCFP-eYFP dual reporter) belonging to this substance: sense rGrArGrArArArArGrCrArGrCrGrUrGrUrCrCrCdTdT / antisense rGrGrGrArCrArCrGrCrUrGrCrUrUrUrUrCrUrCdAdG
Return: 68.3

Enquiry: Supply reported normalised inhibition (eCFP-eYFP dual reporter) belonging to this substance: sense rGrGrGrUrArGrGrGrGrArCrGrUrGrGrUrCrArAdTdT / antisense rUrUrGrArCrCrArCrGrUrCrCrCrCrUrArCrCrCdGdC
Return: 94.9

Enquiry: Supply reported normalised inhibition (eCFP-eYFP dual reporter) belonging to this substance: sense rGrCrGrGrArGrArArGrCrArGrUrCrCrArCrCrGdTdT / antisense rCrGrGrUrGrGrArCrUrGrCrUrUrCrUrCrCrGrCdTdG
Return: 81.8

###

# SUBJECT OF TEST: CDC34
# TEST PROTOCOL: reporter assay of Huesken 2005
# CONDITION DETAILS: siRNA
Oligonucleotides are given in HELM: sugar(base)linkage, 5' to 3'; d 2'-deoxyribose, r ribose, m 2'-O-methylribose, p phosphate. ss, as = sense and antisense strand
MEASURED QUANTITY: normalised inhibition (eCFP-eYFP dual reporter)
Please provide the amount together with its unit, number first.

Enquiry: Supply reported normalised inhibition (eCFP-eYFP dual reporter) belonging to this substance: RNA1{r(C)p.r(C)p.r(A)p.r(C)p.r(C)p.r(C)p.r(G)p.r(C)p.r(C)p.r(G)p.r(G)p.r(U)p.r(G)p.r(G)p.r(A)p.r(C)p.r(G)p.r(A)p.r(C)p.d(T)p.d(T)}|RNA2{r(G)p.r(U)p.r(C)p.r(G)p.r(U)p.r(C)p.r(C)p.r(A)p.r(C)p.r(C)p.r(G)p.r(G)p.r(C)p.r(G)p.r(G)p.r(G)p.r(U)p.r(G)p.r(G)p.d(A)p.d(G)}$$$RNA1{StrandType:ss}|RNA2{StrandType:as}$
Return: 44.2%

###

# SUBJECT OF TEST: TMEM63B
# TEST PROTOCOL: reporter assay of Huesken 2005
# CONDITION DETAILS: siRNA
Oligonucleotides are given in HELM: sugar(base)linkage, 5' to 3'; d 2'-deoxyribose, r ribose, m 2'-O-methylribose, p phosphate. ss, as = sense and antisense strand
The reader will find reported normalised inhibition (eCFP-eYFP dual reporter) values listed item by item below.
Reply with just the number (in %).

Take a look at these entries with their results.
Enquiry: Supply reported normalised inhibition (eCFP-eYFP dual reporter) belonging to this substance: RNA1{r(C)p.r(G)p.r(U)p.r(G)p.r(U)p.r(U)p.r(A)p.r(C)p.r(A)p.r(A)p.r(C)p.r(G)p.r(U)p.r(G)p.r(G)p.r(C)p.r(U)p.r(C)p.r(G)p.d(T)p.d(T)}|RNA2{r(C)p.r(G)p.r(A)p.r(G)p.r(C)p.r(C)p.r(A)p.r(C)p.r(G)p.r(U)p.r(U)p.r(G)p.r(U)p.r(A)p.r(A)p.r(C)p.r(A)p.r(C)p.r(G)p.d(G)p.d(G)}$$$RNA1{StrandType:ss}|RNA2{StrandType:as}$
Return: 91.6

Enquiry: Supply reported normalised inhibition (eCFP-eYFP dual reporter) belonging to this substance: RNA1{r(C)p.r(C)p.r(U)p.r(C)p.r(U)p.r(U)p.r(C)p.r(A)p.r(U)p.r(C)p.r(A)p.r(A)p.r(U)p.r(G)p.r(G)p.r(A)p.r(A)p.r(U)p.r(C)p.d(T)p.d(T)}|RNA2{r(G)p.r(A)p.r(U)p.r(U)p.r(C)p.r(C)p.r(A)p.r(U)p.r(U)p.r(G)p.r(A)p.r(U)p.r(G)p.r(A)p.r(A)p.r(G)p.r(A)p.r(G)p.r(G)p.d(G)p.d(T)}$$$RNA1{StrandType:ss}|RNA2{StrandType:as}$
Return: 73.9

Enquiry: Supply reported normalised inhibition (eCFP-eYFP dual reporter) belonging to this substance: RNA1{r(U)p.r(U)p.r(A)p.r(U)p.r(C)p.r(G)p.r(G)p.r(C)p.r(A)p.r(A)p.r(C)p.r(G)p.r(C)p.r(C)p.r(A)p.r(U)p.r(G)p.r(G)p.r(A)p.d(T)p.d(T)}|RNA2{r(U)p.r(C)p.r(C)p.r(A)p.r(U)p.r(G)p.r(G)p.r(C)p.r(G)p.r(U)p.r(U)p.r(G)p.r(C)p.r(C)p.r(G)p.r(A)p.r(U)p.r(A)p.r(A)p.d(A)p.d(G)}$$$RNA1{StrandType:ss}|RNA2{StrandType:as}$
Return: 62.7

Enquiry: Supply reported normalised inhibition (eCFP-eYFP dual reporter) belonging to this substance: RNA1{r(A)p.r(C)p.r(U)p.r(A)p.r(C)p.r(A)p.r(A)p.r(G)p.r(C)p.r(G)p.r(G)p.r(G)p.r(A)p.r(G)p.r(A)p.r(A)p.r(G)p.r(G)p.r(A)p.d(T)p.d(T)}|RNA2{r(U)p.r(C)p.r(C)p.r(U)p.r(U)p.r(C)p.r(U)p.r(C)p.r(C)p.r(C)p.r(G)p.r(C)p.r(U)p.r(U)p.r(G)p.r(U)p.r(A)p.r(G)p.r(U)p.d(C)p.d(T)}$$$RNA1{StrandType:ss}|RNA2{StrandType:as}$
Return: 72

***
Enquiry: Supply reported normalised inhibition (eCFP-eYFP dual reporter) belonging to this substance: RNA1{r(G)p.r(U)p.r(G)p.r(G)p.r(U)p.r(G)p.r(G)p.r(C)p.r(C)p.r(G)p.r(C)p.r(G)p.r(C)p.r(C)p.r(C)p.r(A)p.r(U)p.r(C)p.r(C)p.d(T)p.d(T)}|RNA2{r(G)p.r(G)p.r(A)p.r(U)p.r(G)p.r(G)p.r(G)p.r(C)p.r(G)p.r(C)p.r(G)p.r(G)p.r(C)p.r(C)p.r(A)p.r(C)p.r(C)p.r(A)p.r(C)p.d(C)p.d(T)}$$$RNA1{StrandType:ss}|RNA2{StrandType:as}$
Return: 46.3
